Quick record: pIC50, Type-1 15-PGDH (Homo sapiens, UniProt P15428).
pIC50: −log10 of the molar value.

{"compound": "CC(C)(C)c1ccc(Oc2cccc(CC3SC(=O)NC3=O)c2)cc1 (stereo not drawn) [Compound 5]", "pIC50": 6.24}
{"compound": "O=C1NC(=O)C(Cc2ccccc2Oc2ccc(Cl)cc2Cl)S1 (stereo not drawn) [Compound 2]", "pIC50": 5.92}
{"compound": "O=C1NC(=O)C(Cc2ccccc2Oc2ccccc2)S1 (stereo not drawn) [Compound 3]", "pIC50": 5.56}
